Hello, the source for this data is PubChem BioAssay (NCI), in case you need it.

Tested on: HCT-116 colon
Test: NCI tumour cell line growth inhibition, 48 h
MEASURED PARAMETER: TGI

Examples with their reported TGI follow.
| COMPOUND | TARGET OR SYSTEM | TGI |
| --- | --- | --- |
| CC(=O)O[C@H]1CC[C@H]2[C@@H]3CCc4cc(O)c(I)cc4[C@H]3CC[C@]12C | HCT-116 colon | 29.9 µM |
| Cc1ccc2c(c1)C(=O)/C(=C1/CCc3ccc(C)cc31)C2 | HCT-116 colon | > 100 µM |
| CC(=O)[O-].CC(=O)[O-].[Mn+2].c1ccc(/C(=N\Nc2ccccn2)c2ccccn2)cc1 | HCT-116 colon | 0.739 µM |
| Cc1cc(S(=O)(=O)Nc2nc(N)n(-c3cnc4ccccc4n3)n2)c(S)cc1Cl | HCT-116 colon | > 100 µM |
| CC[O-].CC[O-].[O-]c1ccccc1C=Nc1ccccc1.[O-]c1ccccc1C=Nc1ccccc1.[Ti+4] | HCT-116 colon | > 100 µM |
| CC1OC(OC2C(OC(=O)[C@]34CCC(C)(C)C[C@H]3C3=CC[C@@H]5[C@@]6(C)CC[C@H](OC7OC(C(=O)O)C(O)C(O)C7O)C(C)(C)[C@@H]6CC[C@@]5(C)[C@]3(C)CC4)OCC(O)C2O)C(O)C(O)C1OC1OCC(O)C(O)C1O (stereo partly specified) | HCT-116 colon | > 100 µM |

Lookup result for Cc1nnc(Nc2ccc(Cl)cc2)o1 ; measured TGI: > 10 µM

Lookup result for O=S(=O)(NCCNc1cc(-c2cn(-c3ccccc3)nc2-c2cccc(O)c2)ccn1)c1ccc(C(F)(F)F)cc1 ; measured TGI: 7.94 µM

Lookup result for CCOC(=O)Cc1ccc(Nc2nc3cc(C(F)(F)F)ccc3nc2C(=O)OCC)cc1 ; measured TGI: > 100 µM

Lookup result for O=C1c2ccccc2C(=O)N1/N=C\c1ccc(Br)cc1 ; measured TGI: > 100 µM

Lookup result for C/C(=C\c1ccn(-c2ccc(N)c(C(F)(F)F)c2)n1)[C@@H]1C[C@@H]2O[C@]2(C)CCC[C@H](C)[C@H](O)[C@@H](C)C(=O)C(C)(C)[C@@H](O)CC(=O)O1 ; measured TGI: > 29.3 µM

Lookup result for O=C1C(=O)c2cc([N+](=O)[O-])ccc2-c2ccccc21 ; measured TGI: 2.82 µM

Lookup result for CCCCCCCCCCCCCCCCOP(=O)(O)OP(=O)(O)OCC1OC(n2ccc(N)nc2=O)CC1O (stereo unspecified) ; measured TGI: > 100 µM

* * *

System: OVCAR-3 ovarian
Experiment: NCI tumour cell line growth inhibition, 48 h
MEASURED PARAMETER: TGI (µM)
Report the figure in µM without appending any unit label.

Lookup result for C[C@]12CCC3c4ccc(OC(=O)c5ccccc5)cc4CC[C@H]3C1CC[C@@H]2OC(=O)C12OC1CCC2=O (stereo not given in full) ; measured TGI: 8.82

* * *

Some compounds, each annotated with its measured TGI.
System: K-562 leukemia
Test: NCI tumour cell line growth inhibition, 48 h

Examples with their reported TGI follow.
| COMPOUND | TGI |
| --- | --- |
| N=c1c2c(ncn1N)Oc1c(c(-c3ccccc3)nn1-c1ccccc1)C2c1ccc(Cl)cc1 (stereo not given) | > 100 µM |
| C/C(=N\O)c1sc(-n2nc(-c3ccccc3)cc2-c2ccccc2)nc1C | 24.6 µM |
| COc1ccccc1/C=C/C(=O)c1sc(-c2cccnc2)nc1C | > 100 µM |
| COc1ccc2[nH]c3c4c(c5cc(C(C)(C)C)ccc5c3c2c1)C(=O)N(c1ccccc1)C4=O | > 100 µM |
| NCCCNc1ccc2c(c1)[n+]([O-])c1ccccc1[n+]2[O-] | > 100 µM |
| Cc1ccc(S(=O)(=O)Nn2c(-c3ccccc3)c(C#N)c(-c3ccc(Cl)cc3)c(C#N)c2=O)cc1 | > 100 µM |

Lookup result for Cc1cc(N(CCOS(C)(=O)=O)CCOS(C)(=O)=O)ccc1C=Nc1ccc(-c2csc(-c3ccccc3)n2)c(Cl)c1 ; measured TGI: 51 µM

Lookup result for O=S(=O)(O)c1cc(S(=O)(=O)O)c2c(N=Nc3cccc4ccccc34)c(O)ccc2c1 ; measured TGI: > 100 µM

Lookup result for NC(=O)/N=C(\N)NC(=O)c1ccccc1 ; measured TGI: > 100 µM

Lookup result for CON(C)C(=O)C(Cc1ccccc1)NC(=O)OC(C)(C)C (stereo not given) ; measured TGI: > 100 µM

* * *

System: TK-10 renal
Experiment: NCI tumour cell line growth inhibition, 48 h
MEASURED PARAMETER: TGI

| COMPOUND | MEASURED RESULT |
| --- | --- |
| CS(=O)(=O)CCNCc1ccc(-c2ccc3ncnc(Nc4ccc(OCc5ccccc5)c(C(F)(F)F)c4)c3c2)o1 | 22.7 µM |
| CC(=O)c1ccc(-c2oc(-c3ccccc3)cc2-c2ccc3c(c2)OCO3)s1 | > 100 µM |
| CN(C)c1ccc(N=Nc2cccc3ccoc23)cc1 | > 100 µM |
| CN1C(=O)n2c(nc3ccccc32)C(N=[N+]=[N-])(N=[N+]=[N-])C1=O (centres undefined) | > 100 µM |
| COc1ccc2cc(C(=O)c3ccccc3C(=O)O)ccc2c1 | > 100 µM |
| CCOC(=O)Cn1c(=O)c2nc(SC)sc2n(-c2ccc(C)cc2)c1=S | > 89.8 µM |
| O=C(O)/C(Cl)=C(\Cl)Nc1cccc(C(F)(F)F)c1 | > 100 µM |
| OCCN1CCN(CCO)Cc2ccccc2OCCOc2ccccc2C1 | > 100 µM |
| CCOC(=O)CSc1nc(-c2ccc(OC)cc2)c(C#N)c(=O)[nH]1 | > 100 µM |
| COc1cc(N2CCC(N3CCN(C)CC3)CC2)ccc1Nc1ncc(Cl)c(Nc2ccccc2P(C)(C)=O)n1 | 3.09 µM |

Record CC(C)C1C(=O)N2CCCC2C2(O)OC(NC(=O)C3C=C4c5cccc6[nH]cc(c56)CC4N(C)C3)(C(C)C)C(=O)N12 (centres undefined) ; system TK-10 renal; TGI = 68.6 µM

Record CCOC(=O)/C(=C/c1ccc(OC)c(OC)c1)C(=O)c1ccccc1 ; system TK-10 renal; TGI = 65.4 µM

Record O=C(Sc1c(-c2ccccc2)c(=O)n(-c2ccccc2)c(=S)n1-c1ccccc1)c1ccc(Cl)cc1 ; system TK-10 renal; TGI = > 100 µM

Record COC(=O)[C@@H]1O[C@]12C(CO[Si](C)(C)C(C)(C)C)OC(n1ccc(=O)[nH]c1=O)C2O[Si](C)(C)C(C)(C)C (some centres undefined) ; system TK-10 renal; TGI = 83.9 µM

Record CC(=O)O[C@H]1C(=O)[C@@]2(C)C(C(OC(=O)c3ccccc3)[C@]3(O)CC(OC(=O)C(O)C(NC(=O)c4ccccc4)c4ccc(F)cc4)C(C)=C1C3(C)C)[C@]1(OC(C)=O)CO[C@@H]1C[C@@H]2O (some centres undefined) ; system TK-10 renal; TGI = > 10 µM

Record C#C[C@@]1(O)[C@@H](CO)O[C@@H](n2cc(Cl)c3c(N)ncnc32)[C@@H]1O ; system TK-10 renal; TGI = 1.24 µM

Record COc1ccc2[nH]c3c4c(c5cc(C(C)(C)C)ccc5c3c2c1)C(=O)N(c1ccccc1)C4=O ; system TK-10 renal; TGI = > 100 µM

Record COc1cc2c(c(OC)c1OC)-c1ccc([O-])c(=O)cc1[C@@H](NC(C)=O)CC2.COc1cc2c(c(OC)c1OC)-c1ccc([O-])c(=O)cc1[C@@H](NC(C)=O)CC2.[Cu+2] ; system TK-10 renal; TGI = > 100 µM

Record COC(=O)c1cc(NC2OCC(OC(C)=O)C(OC(C)=O)C2OC(C)=O)nc(SC)c1C(=O)OC (centres undefined) ; system TK-10 renal; TGI = > 100 µM

* * *

System: NCI-H460 lung
Experiment: NCI tumour cell line growth inhibition, 48 h
MEASURED PARAMETER: TGI

| COMPOUND | TGI |
| --- | --- |
| C=C(Cl)C(C)(Cl)CCC(Cl)C(C)(C)Cl (stereo not drawn) | > 100 µM |
| COc1ccc(NC(=O)C(=O)C(CC2C(=O)NC(=S)NC2=O)C(=O)c2ccc3ccccc3c2)c([N+](=O)[O-])c1 (stereo not drawn) | > 100 µM |
| O=C1C(=O)c2cc([N+](=O)[O-])ccc2-c2ccccc21 | 3.35 µM |
| COC(=O)c1cc(NC2OCC(OC(C)=O)C(OC(C)=O)C2OC(C)=O)nc(SC)c1C(=O)OC (stereo not drawn) | > 100 µM |
| CCCCCCCCCCCCCOC(=O)c1c(C)[nH]c(/C=C2\N=C(c3ccc[nH]3)C=C2OC)c1C | > 100 µM |
| CC(=O)O[C@H]1C(=O)[C@@]2(C)C(C(OC(=O)c3ccccc3)[C@]3(O)CC(OC(=O)C(O)C(NC(=O)c4ccccc4)c4ccc(F)cc4)C(C)=C1C3(C)C)[C@]1(OC(C)=O)CO[C@@H]1C[C@@H]2O (stereo partly drawn) | > 10 µM |
| CC(=O)c1ccc(-c2oc(-c3ccccc3)cc2-c2ccc3c(c2)OCO3)s1 | > 100 µM |

--- query ---
Lookup result for COc1ccc(C(=S)c2cc(OC)c(OC)c(OC)c2)cc1OC(=O)CCl ; measured TGI: 12.9 µM
